# conditions used: in ethanol, 283.15 K
endpoint: solubility (mole fraction)
Reply: number alone, nothing else.

INPUT: Return value of solubility (mole fraction) for input `Oc1ccccc1/C=N/c1ccccn1` , no commentary.
OUTPUT: 0.0199

###

# conditions used: in toluene, 298.15 K
endpoint: solubility (mole fraction)
Reply: number alone, nothing else.

- test smiles: "Oc1ccc(Cl)cc1C=Nc1ccccn1"
  solubility (mole fraction): 0.0277

INPUT: Return value of solubility (mole fraction) for input `Oc1ccccc1/C=N/c1ccccn1` , no commentary.
OUTPUT: 0.423

###

# conditions used: in ethanol, 298.15 K
endpoint: solubility (mole fraction)
Reply: number alone, nothing else.

INPUT: Return value of solubility (mole fraction) for input `Oc1ccccc1/C=N/c1ccccn1` , no commentary.
OUTPUT: 0.0489

###

# conditions used: in toluene, 303.15 K
endpoint: solubility (mole fraction)
Reply: number alone, nothing else.

INPUT: Return value of solubility (mole fraction) for input `Oc1ccc(Cl)cc1C=Nc1ccccn1` , no commentary.
OUTPUT: 0.0339

###

# conditions used: in methanol, 268.15 K
endpoint: solubility (mole fraction)

INPUT: Return value of solubility (mole fraction) for input `Oc1ccccc1/C=N/c1ccccn1` , no commentary.
OUTPUT: 0.00796

###

# conditions used: in ethanol, 273.15 K
endpoint: solubility (mole fraction)

INPUT: Return value of solubility (mole fraction) for input `Oc1ccccc1/C=N/c1ccccn1` , no commentary.
OUTPUT: 0.0121

###

# conditions used: in methanol, 298.15 K
endpoint: solubility (mole fraction)
Reply: number alone, nothing else.

INPUT: Return value of solubility (mole fraction) for input `Oc1ccccc1/C=N/c1ccccn1` , no commentary.
OUTPUT: 0.0503

###

# conditions used: in ethanol, 268.15 K
endpoint: solubility (mole fraction)
Reply: number alone, nothing else.

INPUT: Return value of solubility (mole fraction) for input `Oc1ccccc1/C=N/c1ccccn1` , no commentary.
OUTPUT: 0.0099

###

# conditions used: in methanol, 293.15 K
endpoint: solubility (mole fraction)
Reply: number alone, nothing else.

INPUT: Return value of solubility (mole fraction) for input `Oc1ccccc1/C=N/c1ccccn1` , no commentary.
OUTPUT: 0.0346

###

# conditions used: in toluene, 268.15 K
endpoint: solubility (mole fraction)
Reply: number alone, nothing else.

- test smiles: "Oc1ccc(Cl)cc1C=Nc1ccccn1"
  readout value: 0.0103

INPUT: Return value of solubility (mole fraction) for input `Oc1ccccc1/C=N/c1ccccn1` , no commentary.
OUTPUT: 0.135

###

# conditions used: in methanol, 278.15 K
endpoint: solubility (mole fraction)
Reply: number alone, nothing else.

INPUT: Return value of solubility (mole fraction) for input `Oc1ccccc1/C=N/c1ccccn1` , no commentary.
OUTPUT: 0.0146

###

# conditions used: in dichloromethane, 283.15 K
endpoint: solubility (mole fraction)
Reply: number alone, nothing else.

INPUT: Return value of solubility (mole fraction) for input `Oc1ccc(Cl)cc1C=Nc1ccccn1` , no commentary.
OUTPUT: 0.0193

###

# conditions used: in THF, 298.15 K
endpoint: solubility (mole fraction)
Reply: number alone, nothing else.

INPUT: Return value of solubility (mole fraction) for input `Oc1ccc(Cl)cc1C=Nc1ccccn1` , no commentary.
OUTPUT: 0.0649

###

# conditions used: in dichloromethane, 278.15 K
endpoint: solubility (mole fraction)
Reply: number alone, nothing else.

INPUT: Return value of solubility (mole fraction) for input `Oc1ccc(Cl)cc1C=Nc1ccccn1` , no commentary.
OUTPUT: 0.0166

###

# conditions used: in THF, 293.15 K
endpoint: solubility (mole fraction)

INPUT: Return value of solubility (mole fraction) for input `Oc1ccc(Cl)cc1C=Nc1ccccn1` , no commentary.
OUTPUT: 0.0545

Values were extracted from BigSolDB 2.1.
